target: MCH-2 (Homo sapiens, UniProt P55212); test: Dissociation constant Ki and irreversible rate constant k3 for irreversible inhibitors (Mch2); format: biochemical; conditions: continuous assay 60 min, reaction initiated by adding enzyme to substrate-inhibitor mixture
Sequence (P55212 24-179 limits assumed): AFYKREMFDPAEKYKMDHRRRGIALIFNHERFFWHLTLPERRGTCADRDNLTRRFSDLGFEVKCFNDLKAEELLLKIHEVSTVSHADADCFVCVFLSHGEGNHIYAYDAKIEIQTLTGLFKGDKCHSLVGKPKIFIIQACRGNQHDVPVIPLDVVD
Sequence (P55212 194-293 limits assumed): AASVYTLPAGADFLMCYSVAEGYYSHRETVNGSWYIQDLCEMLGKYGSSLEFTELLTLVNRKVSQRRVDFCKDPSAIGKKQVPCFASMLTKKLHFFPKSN
endpointLabel: MCH-2 k3/Ki

- compound: "C[C@H](NC(=O)C(=O)Nc1ccccc1-c1ccccc1)C(=O)N[C@@H](CC(=O)O)C(=O)COc1ccccc1F [Example 28]"
  measuredOn: "MCH-2 (Homo sapiens, UniProt P55212)"
  MCH-2 k3/Ki: "35,000 moles^−1 seconds^−1"
- compound: "CC(C)[C@H](NC(=O)C(=O)Nc1cccc2ccccc12)C(=O)N[C@@H](CC(=O)O)C(=O)COc1ccc(O)cc1 [Example 15]"
  measuredOn: "MCH-2 (Homo sapiens, UniProt P55212)"
  MCH-2 k3/Ki: "69,100 moles^−1 seconds^−1"
- compound: "C[C@H](NC(=O)C(=O)Nc1ccccc1-c1ccccc1)C(=O)N[C@@H](CC(=O)O)C(=O)COC(=O)c1c(Cl)cccc1Cl [Example 29]"
  measuredOn: "MCH-2 (Homo sapiens, UniProt P55212)"
  MCH-2 k3/Ki: "219,000 moles^−1 seconds^−1"

Note: attention shifts to another entry.
Request - read-out MCH-2 k3/Ki | tested on MCH-2 (Homo sapiens, UniProt P55212) | compound CC(C)[C@H](NC(=O)C(=O)NCc1ccccc1)C(=O)N[C@@H](CC(=O)O)C(=O)COc1c(F)c(F)cc(F)c1F [Example 79]
16,600 moles^−1 seconds^−1

----------
target: UniProtKB P42574; assay: Dissociation constant Ki and irreversible rate constant k3 for irreversible inhibitors (CPP32); format: biochemical; conditions: continuous assay 60 min, reaction initiated by adding enzyme to substrate-inhibitor mixture
Sequence (P42574 29-175 limits assumed, species assumed): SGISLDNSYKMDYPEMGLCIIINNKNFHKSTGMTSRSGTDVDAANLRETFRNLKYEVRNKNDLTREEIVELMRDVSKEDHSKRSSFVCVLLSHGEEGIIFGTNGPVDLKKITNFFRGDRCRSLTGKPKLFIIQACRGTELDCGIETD
Sequence (P42574 176-277 limits assumed, species assumed): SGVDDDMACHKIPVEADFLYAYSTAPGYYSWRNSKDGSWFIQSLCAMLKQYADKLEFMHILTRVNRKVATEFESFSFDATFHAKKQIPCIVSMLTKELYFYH
# maps each entry to its pKi
Quick note: pKi values are minus log10 of concentrations in mol/L.

Some solved entries appear below for comparison.
- compound: "C[C@H](NC(=O)C(=O)NCc1cccc2ccccc12)C(=O)N[C@@H](CC(=O)O)C(=O)COc1c(F)c(F)cc(F)c1F"
  pKi: 7.21
- compound: "C[C@H](NC(=O)C(=O)Nc1cc(C(C)(C)C)ccc1C(C)(C)C)C(=O)N[C@@H](CC(=O)O)C(=O)COP(=O)(c1ccccc1)c1ccccc1"
  pKi: 7.15

API: the following record is the query input.
Item C[C@H](NC(=O)C(=O)Nc1cccc2c1CCCC2)C(=O)N[C@@H](CC(=O)O)C(=O)COC(=O)c1c(Cl)cccc1Cl [Example 62] has what recorded pKi?
7.00
